Source listed as paper doi:10.1101/2021.07.08.451529v1.

Task for the reader: assign each of the following proteins its reported Km.
# Substrate: O=C(O)CC(=O)C(=O)O
# EXPERIMENT SUMMARY: purified protein
# CONDITION DESCRIPTION: 100 μM NADH, 0.1 M phosphate pH 7.5, 0.1 M KCl, 24 °C
One number for each entry, in µM.

Worked cases, answers included:
{"PROTEIN": "endogenous MDH-2 (Caenorhabditis elegans) (protein) SQAPKVALLGAAGGIGQPLGLLLKQDPLVAHLALYDVVNTPGVAADLSHIDSNAKVTAHTGPKELYAAVENADVIVIPAGVPRKPGMTRDDLFNTNAGIVRDLAAVIAKASPKALIAIITNPVNSTVPIASEVLKKAGVYDPKRVFGVTTLDVVRSQAFVSELKGHDASKTVVPVVGGHAGITIIPLLSQVKPSTKFSEEEISKLTPRIQDAGTEVVNAKAGAGSATLSMALAGARFANALVRGIKGEKNVQCAYVASDAVKGVEYFSTPVELGPNGVEKILGVGKVSAYEQKLIDASVPELNKNIAKGVAFVKGN", "Km (µM)": 42}
{"PROTEIN": "recombinant MDH-1 (Caenorhabditis elegans) (protein) MSAPLRVLVTGAAGQIGYSIVIRIADGTVFGKEQPVELVLLDVPQCSNILEGVVFELQDCALPTLFSVVAVTDEKSAFTGIDYAFLVGAMPRREGMERKDLLAANVKIFKSQGKALAEYAKPTTKVIVVGNPANTNAFIAAKYAAGKIPAKNFSAMTRLDHNRALAQLALKTGTTIGNVKNVIIWGNHSGTQFPDVTHATVNKNGTETDAYAAVGDNAFLQGPFIATVQKRGGVIIEKRKLSSAMSAAKAACDHIHDWHFGTKAGQFVSMAVPSDGSYGIPQGLIFSFPVTIEGGEWKIVQGLSFDDFAKGKIAATTKELEEERDDALKACDDANI", "Km (µM)": 54}
{"PROTEIN": "endogenous MDH-1 (Caenorhabditis elegans) (protein) MSAPLRVLVTGAAGQIGYSIVIRIADGTVFGKEQPVELVLLDVPQCSNILEGVVFELQDCALPTLFSVVAVTDEKSAFTGIDYAFLVGAMPRREGMERKDLLAANVKIFKSQGKALAEYAKPTTKVIVVGNPANTNAFIAAKYAAGKIPAKNFSAMTRLDHNRALAQLALKTGTTIGNVKNVIIWGNHSGTQFPDVTHATVNKNGTETDAYAAVGDNAFLQGPFIATVQKRGGVIIEKRKLSSAMSAAKAACDHIHDWHFGTKAGQFVSMAVPSDGSYGIPQGLIFSFPVTIEGGEWKIVQGLSFDDFAKGKIAATTKELEEERDDALKACDDANI", "Km (µM)": 50}

Now consider the entry below.
q: For recombinant MDH-2 (Caenorhabditis elegans) (protein) SQAPKVALLGAAGGIGQPLGLLLKQDPLVAHLALYDVVNTPGVAADLSHIDSNAKVTAHTGPKELYAAVENADVIVIPAGVPRKPGMTRDDLFNTNAGIVRDLAAVIAKASPKALIAIITNPVNSTVPIASEVLKKAGVYDPKRVFGVTTLDVVRSQAFVSELKGHDASKTVVPVVGGHAGITIIPLLSQVKPSTKFSEEEISKLTPRIQDAGTEVVNAKAGAGSATLSMALAGARFANALVRGIKGEKNVQCAYVASDAVKGVEYFSTPVELGPNGVEKILGVGKVSAYEQKLIDASVPELNKNIAKGVAFVKGN , what is its reported Km?
a: 52
